- Tested on: MCF7
- method_notes: Cytotoxicity against human MCF7 cells
- Format: functional, cell-based
pIC50: −log10 of the molar value.
assay_readout: pIC50

Request: // fetch MCF7 pIC50 for C=C1[C@H]2C[C@@H]3C[C@H](OC(C)=O)C(C)=C([C@@H](OC(C)=O)[C@H](OC(C)=O)[C@]2(C)[C@@H](OC(C)=O)C[C@@H]1O)C3(C)C
Response: < 4.30
